Each item that follows carries a reported pIC50.
molecular target: purified HIV-1 integrase (HIV-1 IN) (Human immunodeficiency virus type 1 group M subtype B); assay: biochemical;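 also: integrase at 200 nM exposed to inhibitor 30 min at 30 °C, then 1 h with 20 nM 5′-32P-labelled 21-mer DNA, 3′-processing or strand transfer products quantified on denaturing gels versus no-drug enzyme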
pIC50: −log10 of the molar value.

COMPOUND	RESULT_OPERATOR	pIC50
CN(C)Cc1ccc2n1C(=O)c1ccccc1SC2c1ccc(F)cc1 (stereo not shown)	<	3.00
Cc1ccc2c(c1)C(=O)N1CC[S+]([O-])C1C(=O)S2 (racemic)	=	3.23
CCOC(=O)C1Sc2ccccc2C(=O)n2cccc21 (stereo not shown)	<	3.00
O=C1Sc2cc3ccccc3cc2C(=O)N2CCSC12 (racemic)	=	4.33

====

ASSAY_READOUT: melting point

COMPOUND	ENDPOINT_RESULT
O=C1Sc2ccc(Cl)cc2C(=O)N2CSCC12 (racemic)	204 to 205 °C
O=C1Sc2ccc(Br)cc2C(=O)N2CCSC12 (racemic)	219 to 220 °C
O=C1Sc2ccc(Cl)cc2C(=O)N2C[S+]([O-])CC12 (racemic)	213 to 215 °C
O=C1Sc2cc([N+](=O)[O-])ccc2C(=O)N2CSCC12 (racemic)	231 to 232 °C
